- assayMethodText: Antiproliferative activity against human MM1S cells measured after 72 hrs by MTS assay
- Assay type: functional, cell-based
- experimentalContext: MM1.S
pIC50: −log10 of the molar value.
Let's look at some molecules and their measured pIC50.

{"columns": ["cpdSmiles", "pIC50"],
 "data": [
  ["O=C(Nc1ccccc1)C1CCN(C(=O)N[C@@H](CCc2ccccc2)C(=O)N[C@@H](CCc2ccccc2)C(=O)NCc2ccccc2Cl)CC1", 7.69],
  ["CC(C)C[C@H](NC(=O)[C@H](CCc1ccccc1)NC(=O)CN1CCOCC1)C(=O)N[C@@H](Cc1ccccc1)C(=O)N[C@@H](CC(C)C)C(=O)[C@@]1(C)CO1", 8.82],
  ["O=C(Nc1ccccn1)C1CCN(C(=O)N[C@@H](CCc2ccccc2)C(=O)N[C@@H](CCc2ccccc2)C(=O)NCc2ccccc2Cl)CC1", 7.65],
  ["O=C(Nc1ccc(F)cc1)C1CCN(C(=O)N[C@@H](CCc2ccccc2)C(=O)N[C@@H](CCc2ccccc2)C(=O)NCc2ccccc2Cl)CC1", 6.97],
  ["O=C(Nc1cnccn1)C1CCN(C(=O)N[C@@H](CCc2ccccc2)C(=O)N[C@@H](CCc2ccccc2)C(=O)NCc2ccccc2Cl)CC1", 6.87],
  ["O=C(Nc1nccs1)C1CCN(C(=O)N[C@@H](CCc2ccccc2)C(=O)N[C@@H](CCc2ccccc2)C(=O)NCc2ccccc2Cl)CC1", 7.49],
  ["COc1ccc(NC(=O)C2CCN(C(=O)N[C@@H](CCc3ccccc3)C(=O)N[C@@H](CCc3ccccc3)C(=O)NCc3ccccc3Cl)CC2)cc1", 7.03],
  ["CC(C)C[C@H](NC(=O)N1CCC(C(=O)Nc2cnccn2)CC1)C(=O)N[C@@H](CCc1ccccc1)C(=O)NCc1ccccc1Cl", 6.58],
  ["O=C(Nc1cccnc1)C1CCN(C(=O)N[C@@H](CCc2ccccc2)C(=O)N[C@@H](CCc2ccccc2)C(=O)NCc2ccccc2Cl)CC1", 8.02]
]}
